This collection of values is drawn from PubChem BioAssay (EPA / NIEHS).

# measured.on: Bile acid receptor (Homo sapiens)
# test: OT_FXR_FXRSRC1_1440: Odyssey Thera (OT) 24-hour HEK293T Protein-Complementation Assay for Farnesoid X receptor/SRC-1 Co-activator (AID 2283384)
Records with an inconclusive call do not appear. The source made the active and inactive calls. Rule for the calls: active = hit-call score of the fitted dose curve at least 0.9, where 1 is the maximum; inconclusive = response in the unintended direction; inactive = score below 0.9.
observable: outcome

>  <compound>
COc1ccc(O)c(C(C)(C)C)c1

>  <test.result>
inactive

$$$$
>  <compound>
C1CC2OC2CC1C1CO1 (stereo not drawn)

>  <test.result>
inactive

$$$$
>  <compound>
O=NN(c1ccccc1)c1ccccc1

>  <test.result>
inactive

$$$$

====

# test: APR_HepG2_CellLoss_24hr: Apredica 24-hour HepG2 Assay for Cell Loss (AID 2282908)
# protocol.conditions: high-content imaging
Activity calls are given as the source filed them. Rule for the calls: active = hit-call score of the fitted dose curve at least 0.9, where 1 is the maximum; inactive = score below 0.9.
Classes used: active, inactive

>  <molecule>
c1ccc(-c2ccccc2)cc1

>  <assigned.class>
inactive

$$$$
>  <molecule>
CC(c1ccc(O)cc1)(c1ccc(O)cc1)c1ccc(O)cc1

>  <assigned.class>
active

$$$$
>  <molecule>
ClC1=C(Cl)[C@]2(Cl)[C@@H]3[C@@H]4C[C@@H]([C@H]5O[C@@H]45)[C@@H]3[C@@]1(Cl)C2(Cl)Cl

>  <assigned.class>
active

$$$$
>  <molecule>
CC(C)C(=O)OCC(C)(C)C(OC(=O)C(C)C)C(C)C (centres undefined)

>  <assigned.class>
inactive

$$$$
>  <molecule>
CCCCCCCCCC[N+](C)(C)CCCCCCCCCC

>  <assigned.class>
active

$$$$
>  <molecule>
Cc1ccccc1[N+](=O)[O-]

>  <assigned.class>
inactive

$$$$
>  <molecule>
CCOP(=S)(OCC)SCSC(C)(C)C

>  <assigned.class>
inactive

$$$$
>  <molecule>
Clc1ccc(C(Cl)(Cl)Cl)cc1

>  <assigned.class>
inactive

$$$$
>  <molecule>
CCC(C)(CC)c1cc(NC(=O)c2c(OC)cccc2OC)on1

>  <assigned.class>
inactive

$$$$
>  <molecule>
Nc1ccc(-c2ccc(N)cc2)cc1

>  <assigned.class>
inactive

$$$$
>  <molecule>
N#Cc1ccc(N(CC(N)=O)CC(F)(F)F)cc1C(F)(F)F

>  <assigned.class>
inactive

$$$$
>  <molecule>
CCC(C)(c1ccc(O)cc1)c1ccc(O)cc1

>  <assigned.class>
active

$$$$
>  <molecule>
C=CC(N)=O

>  <assigned.class>
inactive

$$$$
>  <molecule>
Clc1ccc(C(c2ccccc2Cl)C(Cl)(Cl)Cl)cc1 (centres undefined)

>  <assigned.class>
active

$$$$
